Item-by-item account of % subjects with ADA binding (10 subjects) (% of subjects)
TEST_SYSTEM: pre-existing anti-VH ADA in human serum
TEST_SUMMARY: ADA confirmation assay (MSD): 10 ug/mL test material against labelled DOM1H-131-206; share of 10 ADA-positive sera with binding
OBSERVATION_TYPE: % subjects with ADA binding (10 subjects) (% of subjects)

1. DOM1H-131-206 T110A (protein, name in Kabat numbering) VH: EVQLLESGGGLVQPGGSLRLSCAASGFTFAHETMVWVRQAPGKGLEWVSHIPPDGQDPFYADSVKGRFTISRDNSKNTLYLQMNSLRAEDTAVYHCALLPKRGPWFDYWGQGTLVAVSS = 100
2. DOM1H-131-206 L108A (protein, name in Kabat numbering) VH: EVQLLESGGGLVQPGGSLRLSCAASGFTFAHETMVWVRQAPGKGLEWVSHIPPDGQDPFYADSVKGRFTISRDNSKNTLYLQMNSLRAEDTAVYHCALLPKRGPWFDYWGQGTAVTVSS = 100
3. DOM1H-131-206 P14E (protein, name in Kabat numbering) VH: EVQLLESGGGLVQEGGSLRLSCAASGFTFAHETMVWVRQAPGKGLEWVSHIPPDGQDPFYADSVKGRFTISRDNSKNTLYLQMNSLRAEDTAVYHCALLPKRGPWFDYWGQGTLVTVSS = 60
4. DOM1H-131-206 P14Q + C-terminal A (protein, name in Kabat numbering) VH: EVQLLESGGGLVQQGGSLRLSCAASGFTFAHETMVWVRQAPGKGLEWVSHIPPDGQDPFYADSVKGRFTISRDNSKNTLYLQMNSLRAEDTAVYHCALLPKRGPWFDYWGQGTLVTVSSA = 20
5. DOM1H-131-206 L11A (protein, name in Kabat numbering) VH: EVQLLESGGGAVQPGGSLRLSCAASGFTFAHETMVWVRQAPGKGLEWVSHIPPDGQDPFYADSVKGRFTISRDNSKNTLYLQMNSLRAEDTAVYHCALLPKRGPWFDYWGQGTLVTVSS = 100
6. DOM1H-131-206 P14K + C-terminal ASTKG (protein, name in Kabat numbering) VH: EVQLLESGGGLVQKGGSLRLSCAASGFTFAHETMVWVRQAPGKGLEWVSHIPPDGQDPFYADSVKGRFTISRDNSKNTLYLQMNSLRAEDTAVYHCALLPKRGPWFDYWGQGTLVTVSSASTKG = 10
7. DOM1H-131-206 C-terminal S deletion (ΔS) (protein) VH: EVQLLESGGGLVQPGGSLRLSCAASGFTFAHETMVWVRQAPGKGLEWVSHIPPDGQDPFYADSVKGRFTISRDNSKNTLYLQMNSLRAEDTAVYHCALLPKRGPWFDYWGQGTLVTVS = 40
8. DOM1H-131-206 P14K (protein, name in Kabat numbering) VH: EVQLLESGGGLVQKGGSLRLSCAASGFTFAHETMVWVRQAPGKGLEWVSHIPPDGQDPFYADSVKGRFTISRDNSKNTLYLQMNSLRAEDTAVYHCALLPKRGPWFDYWGQGTLVTVSS = 50
9. DOM1H-131-206 P14T (protein, name in Kabat numbering) VH: EVQLLESGGGLVQTGGSLRLSCAASGFTFAHETMVWVRQAPGKGLEWVSHIPPDGQDPFYADSVKGRFTISRDNSKNTLYLQMNSLRAEDTAVYHCALLPKRGPWFDYWGQGTLVTVSS = 100
10. DOM1H-131-206 P14Q + C-terminal ASTKG (protein, name in Kabat numbering) VH: EVQLLESGGGLVQQGGSLRLSCAASGFTFAHETMVWVRQAPGKGLEWVSHIPPDGQDPFYADSVKGRFTISRDNSKNTLYLQMNSLRAEDTAVYHCALLPKRGPWFDYWGQGTLVTVSSASTKG = 10
11. DOM1H-131-206 P14K + C-terminal A (protein, name in Kabat numbering) VH: EVQLLESGGGLVQKGGSLRLSCAASGFTFAHETMVWVRQAPGKGLEWVSHIPPDGQDPFYADSVKGRFTISRDNSKNTLYLQMNSLRAEDTAVYHCALLPKRGPWFDYWGQGTLVTVSSA = 10
12. DOM1H-131-206 C-terminal AST (protein) VH: EVQLLESGGGLVQPGGSLRLSCAASGFTFAHETMVWVRQAPGKGLEWVSHIPPDGQDPFYADSVKGRFTISRDNSKNTLYLQMNSLRAEDTAVYHCALLPKRGPWFDYWGQGTLVTVSSAST = 20
13. DOM1H-131-206 P14Q (protein, name in Kabat numbering) VH: EVQLLESGGGLVQQGGSLRLSCAASGFTFAHETMVWVRQAPGKGLEWVSHIPPDGQDPFYADSVKGRFTISRDNSKNTLYLQMNSLRAEDTAVYHCALLPKRGPWFDYWGQGTLVTVSS = 60
14. DOM1H-131-206 A84T (other, name in Kabat numbering, VH dAb variant) VH: EVQLLESGGGLVQPGGSLRLSCAASGFTFAHETMVWVRQAPGKGLEWVSHIPPDGQDPFYADSVKGRFTISRDNSKNTLYLQMNSLRTEDTAVYHCALLPKRGPWFDYWGQGTLVTVSS = 100
15. DOM1H-131-206 P14T + C-terminal A (protein, name in Kabat numbering) VH: EVQLLESGGGLVQTGGSLRLSCAASGFTFAHETMVWVRQAPGKGLEWVSHIPPDGQDPFYADSVKGRFTISRDNSKNTLYLQMNSLRAEDTAVYHCALLPKRGPWFDYWGQGTLVTVSSA = 20
16. DOM1H-131-206 S112A (protein, name in Kabat numbering) VH: EVQLLESGGGLVQPGGSLRLSCAASGFTFAHETMVWVRQAPGKGLEWVSHIPPDGQDPFYADSVKGRFTISRDNSKNTLYLQMNSLRAEDTAVYHCALLPKRGPWFDYWGQGTLVTVAS = 80
